# System: UACC-257 melanoma
# Experimental protocol: NCI-60 one-dose screen, 48 h (100 = growth as untreated, 0 = no growth, -100 = all killed)
# Protocol conditions: 10 µM
Compounds without any hit were thinned out: in the full panel of roughly 83,000, 20% have a hit.
Reported property: growth (%)
Kindly provide the numeric value in % only, without the unit symbol.

# example entries with known answers
>>> reported_value("Nc1nc(N)c(N)c(Nc2ccc(CCO)cc2)n1")
103
>>> reported_value("CC(C)N(CCOc1ccc(-c2nc3sccn3c2-c2ccnc(S(C)(=O)=O)n2)cc1)C(C)C")
78.4
>>> reported_value("COc1ccc(Nc2cnc3cc(NS(=O)(=O)c4ccc(C)cc4)ccc3n2)cc1")
73.3
>>> reported_value("COc1ccc(C(=O)N2C=Cc3ccccc3C2C#N)cc1 (stereo not given)")
93.7
>>> reported_value("COc1ccc(C(=O)N/N=C/c2cc(C(F)(F)F)ccc2Cl)cc1")
105

Given item CC(C)N(CCOc1cccc(-c2nc3sccn3c2-c2ccnc(S(C)(=O)=O)n2)c1)C(C)C , the value recorded as its growth is 104

Recorded result, CCCCN1C(=O)CC(SC2CC(=O)N(CCCC)C2=O)C1=O (stereo not given) , growth: 98.6

growth reading for Cc1cc(NC(=O)c2ccc(C)c(Nc3nccc(-c4cccnc4)n3)c2)cc(-n2cnc(C)c2)c1 : 87

In plain terms, COc1cc2cc(Oc3ccc(NC(=O)c4cccc(C(F)(F)F)c4)cc3)c(C)nc2cc1OC has a documented growth of 44.9

Record summary for OC(CCN1CCCC1)(c1ccccc1)C1CCCCC1 (stereo not given) : reported growth = 109
